Source listed as the supplement of paper PMC12042874.

# protocolNotes: amyloid nucleation score (Sup35N fusion, yeast selection) (log enrichment); library NNK1; higher = more nucleation; inactive = no reads after selection;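 note: zero at mode of non-aggregating sequences after 7 days selection at 30°C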

substance	amyloid nucleation score
NSSSIQVANRARDV	inactive
WNYSHEV	inactive
SWLWSCSCLRVAMLTT	inactive

* * *

# protocolNotes: amyloid nucleation score (Sup35N fusion, yeast selection) (log enrichment); library NNK3; higher = more nucleation; inactive = no reads after selection

substance	amyloid nucleation score
FGWLTPDMKFLCTYKQRISG	inactive
YISSVQGCPMEGGLPKSSAS	inactive
GLVNCEHVWRIETKLVTPHL	-0.764
RGKCSNIETRIVRCWGGQVV	inactive
MCQNANRYTGMSLVMFVGSV	1.24
IWNKFGIIFYVVYYSIRTNL	inactive
VRVTVLFEIHGDVCMLMSVA	0.827
IPNDYAVAYAEGQLLVCELK	inactive
GIEADYSYMSGEGKAVCSSM	inactive
IDTAFRSYCYDFDLANDLMG	inactive
YWVGEWLMCPYTR	inactive
YWVWLGPQNI	0.115
LCSAIGWSSACIFVWSYYTR	inactive
NGDYDIIRSTCYTSKVYQSV	inactive
RFFSFFIT	2.44
SLVIQKSFRGDGLRVRHGLQ	inactive
IIADKVQSLISFDNVGMCQW	inactive
VKKSYWAERGFFGA	inactive
AHVKLNDVFSWI	inactive
VWVMSSWTVRIISPTVWMLV	inactive
QDFYFISILACGYIWH	inactive
IYSRELHVCAVSIADFIWFW	inactive
YSPDMRGMFIGGPDSVPLEG	inactive
VLIMYKSGRYVIGSLVLMCL	inactive
LLVMWWYRLTGPDGVSNWR	inactive
THLVDYKLVL	inactive
CHDLLHVVIEIPVCFLCTKG	0.807
GCAKVKLI	-0.292
FMGLGLQLRLIHLSRG	inactive
VDHSLVWDHWTLRDIPCKTG	inactive
IGRLMA	inactive
TNANFATDSHFLVITE	inactive
TASVLNYFSGFWRGV	1.04
EEDKLFCGVMWQFG	inactive
KRRMRGALRVRVNSTHCWYV	inactive
FFCNLSSILRWGN	0.572
LFMRCSYCSV	inactive
KFFQIIRASVF	inactive
IINATVCHCM	3.33
